Assay: Protein Binding, Mouse Plasma
Assay type: in vitro ADME
Conditions: read-out: Protein Binding % Bound (converted)
MEASURED ATTRIBUTE: fraction unbound
Numbers only.

Query: Given the compound CN(c1ccccc1)c1nc(N)nc2[nH]c3cccc(Cl)c3c12 [AGN11] , what is its reported fraction unbound?
Response: 0.0022

---

Task for the reader: assign each of the following molecules its reported pIC50.
Target: CSNK1A1 (CK1 alpha 1) (Homo sapiens, UniProt P48729)
Sequence (P48729 whole entry): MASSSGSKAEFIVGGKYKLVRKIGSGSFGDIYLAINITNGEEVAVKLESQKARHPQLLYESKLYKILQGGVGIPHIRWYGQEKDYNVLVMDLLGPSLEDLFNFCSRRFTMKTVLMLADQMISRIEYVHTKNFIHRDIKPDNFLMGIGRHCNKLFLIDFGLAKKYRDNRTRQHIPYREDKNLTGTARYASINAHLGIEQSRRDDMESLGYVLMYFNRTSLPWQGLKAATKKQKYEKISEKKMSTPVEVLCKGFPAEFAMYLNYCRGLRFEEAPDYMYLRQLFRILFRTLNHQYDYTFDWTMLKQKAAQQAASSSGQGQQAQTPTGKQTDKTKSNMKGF
Assay: Kinase inhibition, CSNK1A1
Assay type: biochemical
One number for each entry, as −log10 of the molar value.

* Cc1ccc(N(C)c2nc(N)nc3[nH]c4cccc(Cl)c4c23)cc1 [AGN5] | 6.30

Continue with the next molecule.
Query: For the molecule CN(c1ccccc1)c1nc(N)nc2[nH]c3cccc(Cl)c3c12 [AGN11] , what pIC50 is on record?
Response: 7.52

Sourced from patent US20240360142A1
